test system: Phaedon cochleariae; assay type: in vivo; settings: 100 g/ha; after 6 d; single active compound
Field: Kill In % after 6d. Provide a value for each of the compounds that follow.
Show the value, then the unit it is measured in.

Sample answers from the record:
• COP(=O)(NC(C)=O)SC (stereo not shown) [acephate] = 0%
• O=C1C=C(N(Cc2ccc(Cl)nc2)CC(F)F)CO1 = 67%
• CS/C(C)=N/OC(=O)N(C)SN(C)C(=O)O/N=C(\C)SC = 0%

Now let's try a different one.
Which Kill In % after 6d is listed for O=C1C=C(N(CCF)Cc2ccc(Cl)nc2)CO1 ?
50%
